System: PPARa:RXRa (NR concentration 270 nM, RXRa partner concentration 90 nM)
Test: PBM binding z-score (relative to random genomic background probes); higher = stronger binding; sequences stand for … in GC…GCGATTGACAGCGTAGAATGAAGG
Please respond with reported PBM binding z-score for every item in the list.

query: Please supply the value of reported PBM binding z-score for the item "AGTCAAAGTTCAGGACGAGGTAACGTGAAGCACG"
result: 3.33

query: Please supply the value of reported PBM binding z-score for the item "TTACCAAGGTGAATGGTCGTTGATGCACGCCTTG"
result: 1.35

query: Please supply the value of reported PBM binding z-score for the item "ATATGTACGTTAAGGGTCATTCAGGTTGGTTCGC"
result: 4.74

query: Please supply the value of reported PBM binding z-score for the item "AGTCAAAGTTCAGGAGGAGGTAACGTAAAGCACG"
result: 3.67

query: Please supply the value of reported PBM binding z-score for the item "ATCTCTAGGTAACAAGTTCAGTGACAGAGAGGAC"
result: 1.52

query: Please supply the value of reported PBM binding z-score for the item "ATCTTTAGGTAAAAGTTCAGTGAATCCCGAGGAT"
result: 4.03

query: Please supply the value of reported PBM binding z-score for the item "CCAGACAGGTTAGAAGGTAACTCAGCCTCGATTA"
result: 0.816

====

Please respond with reported PBM binding z-score for every item in the list.
Tested on: PXR:RXRa (NR concentration 270 nM, RXRa partner concentration 90 nM)
Assay: PBM binding z-score (relative to random genomic background probes); higher = stronger binding; sequences stand for … in GC…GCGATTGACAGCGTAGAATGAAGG
Form rule: numeric answer, no unit written next to it.

query: Please supply the value of reported PBM binding z-score for the item "CAAACTAGGTCAAAGAGGTCAAAGTCCGTGCGTA"
result: 6.37

query: Please supply the value of reported PBM binding z-score for the item "CCTTGCAGGCCAATCTGGGTCACTCAAGGCTTGA"
result: 1.02

query: Please supply the value of reported PBM binding z-score for the item "TCATATAGGTAAAGCTGAAAGTCGAACGATATGA"
result: 0.2

query: Please supply the value of reported PBM binding z-score for the item "CCTGCTAGGTCAATGGCCAGCTAAAGCAGCTCGC"
result: 0.566

query: Please supply the value of reported PBM binding z-score for the item "ACTAGCAGGCCGAGGGTCACTCAAGATTAGTCCG"
result: 1.71

query: Please supply the value of reported PBM binding z-score for the item "CAAACTAGGTCAAGAGGTCAAGGTCCGCTTCCCG"
result: 5.88

query: Please supply the value of reported PBM binding z-score for the item "CCGACTGGGGCAAGGTTACCAAAACGCACAGCCA"
result: 0.341

====

Test system: PPARg homodimer (NR concentration 180 nM)
Experiment: PBM binding z-score (relative to random genomic background probes); higher = stronger binding; sequences stand for … in GC…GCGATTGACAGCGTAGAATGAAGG
measuredMetric: PBM binding z-score

query: Please supply the value of reported PBM binding z-score for the item "GCTCACGGGTCAAAGGTTATAGCATGAATAGAAT"
result: 2.09

query: Please supply the value of reported PBM binding z-score for the item "CCTCTGAGGACAACAGGAGGTCAGAGCTGCCAGA"
result: 1.58

query: Please supply the value of reported PBM binding z-score for the item "CCTCGGAGGACTGAAGGTCAGAGCTGTCCGCTTT"
result: 0.742

query: Please supply the value of reported PBM binding z-score for the item "AGTCAAAGTTCAGGACGTGGTAACGTAAAGCACG"
result: 1.68

query: Please supply the value of reported PBM binding z-score for the item "CCGACTGCGGCAAGGTTACCATAACGCACAGCCA"
result: 0.4

query: Please supply the value of reported PBM binding z-score for the item "GCTGCTAGGTCAGGTGGGTCAGCTAACGGGTACG"
result: 1.05

This collection of values is drawn from the supplement of paper PMC6555819.
